assay_explanation: inhibitors of intracellular T. cruzi replication, confirmation, NIH3T3 host cells, beta-gal luminescence (AID 2044);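 note: intracellular parasites grown in NIH/3T3 mouse fibroblasts as host cells; luminescent beta-galactosidase reporter signal from transgenic T. cruzi replicating inside host cells; inhibitors lower the luminescence signal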
Type: functional, cell-based
The source made the active and inactive calls.
test_readout: EC50

Illustrative cases are given below, each with its answer.
INSERT INTO measurements (molecule, data_value) VALUES
  ('O=C(/C=C/c1cc[n+](CC(=O)c2ccc3cccc4c3c2CC4)cc1)c1ccc2cccc3c2c1CC3', '146 nM (active)'),
  ('C=CCNC(=O)O/N=C/c1csc([N+](=O)[O-])c1', '1930 nM (active)'),
  ('Cc1c(C(O)CN2CCN(Cc3ccc4c(c3)OCO4)CC2)c2ccccc2n1C (configuration not stated)', '2470 nM (active)');

Please report EC50 for every entry that follows.
1. CCOC(=O)c1cnc(Nc2nc3ccccc3o2)nc1CSC(=S)N(CC)CC
2. CN(C)CCCNc1ncc(C(F)(F)F)cc1Cl
3. Cc1ccccc1NC(=O)c1ccc(Nc2c([N+](=O)[O-])cc([N+](=O)[O-])c3ccccc23)cc1

Result ::
["170 nM (active)", "659 nM (active)", "937 nM (active)"]

Please report EC50 for every entry that follows.
1. CCOCCCN=C(S)NCCNc1nc2c(C)cccc2cc1C#N
2. CN1C=C/C(=C\c2cc[n+](C)c3ccccc23)c2ccccc21
3. N#C/C(=C/c1cn(-c2ccccc2)nc1-c1cccc(OCc2ccc(F)cc2)c1)C(=O)NCCCn1ccnc1
4. COC(=O)[C@@H]1CC[C@H](C)[C@@H](c2ccc(C)cc2)N1C(=O)c1ccc(/C=N/O[C@@H](C)c2cn([C@H](CO)Cc3ccccc3)nn2)cc1

Result ::
1: 2730 nM (active); 2: < 100 nM (active); 3: 1460 nM (active); 4: 891 nM (active)

Please report EC50 for every entry that follows.
1. CCN(CC)CCN(C)C(=O)CCc1nnc(-c2ccc(C)s2)o1
2. O=C(Cn1cnc2cc([N+](=O)[O-])ccc2c1=O)Nc1ccc2c(c1)OCO2

Result ::
1: 1350 nM (active); 2: 2310 nM (active)

====

assay_explanation: P. falciparum Dd2 growth inhibitors, dose response, SYBR Green, cherry-picked samples (AID 1159567)
Assay type: functional, cell-based
Calls of active or inactive are those of the source.
test_readout: AC50

Illustrative cases are given below, each with its answer.
INSERT INTO measurements (given_smiles, data_value) VALUES
  ('CO[C@@H]1CN(C)C(=O)c2cc(NC(=O)Nc3ccc(Cl)c(Cl)c3)ccc2OC[C@@H](C)NC[C@@H]1C', '5.7 µM (active)'),
  ('O=C(C1CCCCC1)N1CC(=O)N2[C@H](C1)[C@@H](c1ccc(C#Cc3cccc(F)c3)cc1)[C@@H]2CO', '4.26 µM (active)'),
  ('COc1cccc(S(=O)(=O)Nc2ccc3c(c2)[C@@H]2C[C@H](CC(=O)NCc4cccc(F)c4)O[C@@H](CO)[C@@H]2O3)c1', '6.43 µM (active)');

Please report AC50 for every entry that follows.
1. COc1cccc(-c2ccc([C@@H]3[C@@H]4CN(C(=O)C5CC5)C[C@H]3N4)cc2)c1
2. C/C=C/c1ccc2c(c1)[C@H]1[C@H](CCN1C(=O)c1ccc3c(c1)OCO3)[C@H](CO)N2

Result ::
1: 0.949 µM (active); 2: 6.34 µM (active)
